FYI, the data here is from PubChem BioAssay (NCI).

system: SW-620 colon; test: NCI tumour cell line growth inhibition, 48 h
Measured Property: TGI

The cases that follow already have their TGI on record.
Molecule	TGI
COc1ccc(C(=O)C2CCC(C(=O)O)C2)cc1 (stereo not given)	> 100 µM
Cc1cc2c(F)c(Oc3ncnc(Nc4ccc(N5C[C@@H](C)N[C@@H](C)C5)cc4)c3C#N)cc(F)c2[nH]1	4.1 µM
COC(=O)CCc1ccc(CCC(=O)OC)cc1	> 100 µM
CC(C)(C)C(=O)N1C(C(=O)O)Cc2ccccc2[C@@H]1Cc1ccccc1 (stereo not given in full)	> 100 µM
C#CC1(O)CCC2[C@@H]3CCc4cc(Oc5nc(F)nc(-c6c(C)c(C(=O)OCC)n7ccccc67)n5)ccc4C3CC[C@@]21C (stereo not given in full)	> 100 µM

So, CCN1CCN(CCNc2nccc(-c3c(-c4ccc(F)c(O)c4)nc4occn34)n2)S1(=O)=O ? Its TGI was > 100 µM

Item: CC1C(C)(C)C23CC12C1(OCCO1)C3Br (stereo not given) | TGI: > 100 µM

TGI measured on CCOC(=O)C(=Cc1ccc(C#N)cc1)C(=O)OCC = 4.72 µM

According to the records, this molecule Cc1c(NC(=S)Nc2ccc([N+](=O)[O-])cc2)c(=O)n(-c2ccccc2)n1C displays TGI of > 100 µM

Noted for COc1ccc2cc(-c3cnc4nonc4n3)ccc2c1 : its TGI reads > 100 µM
